System: U937 cells
assay protocol: Human U937 cellular necroptosis assay
Type: cell-based
experimental context: U-937; U937 cells stimulated with 25 ng/mL human TNFalpha and 25 μM z-VAD-FMK; 22 hr; Cell Titer-Glo viability
Reported IC50 values follow for various compounds

Here is how some compounds turned out for IC50.
Any idea what its IC50 is? The compound is `N#Cc1ccc(Cn2cnc(C(=O)Nc3cccc(Cl)c3F)n2)cc1` 5420 nM

Please look up its IC50: `CN(C)Cc1cc(Cl)c(F)c(N2CCc3c(nn(Cc4ncccc4F)c3Cl)C2=O)c1` > 10000 nM

Quick one: IC50 of CC(c1cccc(F)c1F)n1nc2c(c1Cl)CCN(c1cccc(Cl)c1F)C2=O (stereo not drawn) ? > 10000 nM

# query: IC50 of entry `Cc1ccc(Cn2cnc(C(=O)Nc3cccc(Cl)c3F)n2)cc1F` 4300 nM

Any idea what its IC50 is? The compound is `NCc1c2c(nn1Cc1ccccc1)C(=O)N(c1cccc(Cl)c1F)CC2` 6110 nM

Look up IC50: `O=C1c2nn(Cc3cc(F)ccc3F)c(Br)c2CCN1c1cccc(Cl)c1F` 16.2 nM

Would you kindly share the measured IC50 for `O=C(Nc1ccc(F)c(Cl)c1F)c1ncn(Cc2ccccc2)n1` ? 1470 nM

Name the recorded IC50 for `NCc1cc(Cl)c(F)c(NC(=O)c2ncn(Cc3ccccc3)n2)c1` . 1650 nM

Others:
What IC50 value was documented for this compound, `N#CCc1cc(Cl)c(F)c(N2CCc3c(nn(Cc4cccc(F)c4F)c3Cl)C2=O)c1` ? 142 nM

Consider the compound shown here: `Cn1cc(-c2cc(Cl)c(F)c(NC(=O)c3ncn(Cc4ccccc4)n3)c2)cn1` What is its recorded IC50? 10000 nM

Endpoint output: IC50 of `O=C(Nc1cccc(Cl)c1F)c1ncn(Cc2ncccc2F)n1` . Value? 1260 nM

So what's the measured IC50 for this one? `O=C(Nc1cccc(Cl)c1F)c1n[nH]c(Cc2ccccc2)n1` 6300 nM

Could you share which IC50 value was measured for `O=C(Nc1cccc(Cl)c1F)c1ncn(Cc2ccccc2)n1` ? 851 nM

Requested read-out: IC50. Entry: `COc1c2c(nn1Cc1cc(F)ccc1F)C(=O)N(c1cccc(Cl)c1F)CC2` 115 nM

Any idea what its IC50 is? The compound is `COCc1cc(Cl)c(F)c(N2CCc3c(nn(Cc4cccc(F)c4F)c3Cl)C2=O)c1` > 10000 nM

Can you share its IC50? I mean this compound: `O=C(Nc1cc(Cl)cc(Cl)c1)c1n[nH]c(Cc2ccccc2)n1` > 10000 nM

GET /values?readout=IC50&item= `O=C1c2nn(Cc3cnccn3)c(Cl)c2CCN1c1cccc(Cl)c1F` 53.7 nM

# input compound: `N#CCc1cc(Cl)c(F)c(NC(=O)c2ncn(Cc3ccccc3)n2)c1` ; wanted: its IC50 347 nM

Given the entry `O=C1c2nn(Cc3ccc(F)cc3)c(Cl)c2CCN1c1cccc(Cl)c1F` , report its measured IC50. 291 nM

Name the reported IC50 value associated with the compound `CS(=O)(=O)NCc1cc(Cl)c(F)c(NC(=O)c2ncn(Cc3ccccc3)n2)c1` 1500 nM

Need IC50 of `O=C1c2nn(Cc3ncccc3F)c(Cl)c2CCN1c1cc(CO)cc(Cl)c1F` , thanks. 917 nM

Record request: IC50 value, item `O=C(Nc1cccc(Cl)c1F)c1ncn(Cc2ccccc2F)n1` 657 nM

Could you tell me which IC50 is on file for `NC(=O)c1cccc(Cn2nc3c(c2Cl)CCN(c2cccc(Cl)c2F)C3=O)c1` ? 1160 nM

The measurements presented in this section are drawn from patent US11718612B2.
